# Tested on: Saccharomyces cerevisiae;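 further: PSI is a weighted mean of sequencing reads over stability bins, variants kept only with over 10 reads, mCherry proximal and sfGFP distal, peptide attached via GGGS linker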
# Protocol Notes: protein stability index of tFT-peptide fusion (C-terminal peptide) (PSI (0-1 scale)); higher = more stable (slower turnover)
# Reported Conditions: genetic background: wild type; temperature: 30 C
Measured protein stability index of individual entries

[[record]]
sequence_code = "SVCRVSVKKECR"
target_entity = "Saccharomyces cerevisiae"
outcome_measure = "protein stability index"
experimental_value = 0.701

[[record]]
sequence_code = "VHCGTEPRGPRH"
target_entity = "Saccharomyces cerevisiae"
outcome_measure = "protein stability index"
experimental_value = 0.709

[[record]]
sequence_code = "RQRWLSELSKAL"
target_entity = "Saccharomyces cerevisiae"
outcome_measure = "protein stability index"
experimental_value = 0.712

[[record]]
sequence_code = "PRGHPPIPPPLP"
target_entity = "Saccharomyces cerevisiae"
outcome_measure = "protein stability index"
experimental_value = 0.69

[[record]]
sequence_code = "PPAPPPASPGLV"
target_entity = "Saccharomyces cerevisiae"
outcome_measure = "protein stability index"
experimental_value = 0.702

[[record]]
sequence_code = "FSGGCSVHGLIS"
target_entity = "Saccharomyces cerevisiae"
outcome_measure = "protein stability index"
experimental_value = 0.612

[[record]]
sequence_code = "GAECVSGWGGET"
target_entity = "Saccharomyces cerevisiae"
outcome_measure = "protein stability index"
experimental_value = 0.709

[[record]]
sequence_code = "LLPPPLPPLHSS"
target_entity = "Saccharomyces cerevisiae"
outcome_measure = "protein stability index"
experimental_value = 0.683


Query block: // protein stability index lookup, key: VARPMHFIRYGK
Result block: 0.716

Query block: # input sequence: VPPLFALAPPAP ; wanted: its protein stability index
Result block: 0.681

Query block: Reported protein stability index, sequence VCAVRVGGGGEG : ____
Result block: 0.601
